Molecular target: SFRP-1 (Homo sapiens)
Test: Cell-based assay for in vitro measurement of SFRP-1/SARP2 antagonist activity (U2OS cells co-transfected with 16x TCF-tk-Luciferase reporter, Wnt and hSFRP-1)
Details: U2OS, read-out: Fold Induction without SFRP-1, Conc 15 μM; without SFRP-1, single dose
Entries annotated with measured fold induction at 15 µM
In your answer, state the number alone without any accompanying words.

Query: Tell me reported fold induction at 15 µM for Cc1ccc(S(=O)(=O)c2ccc(N3CCCCC3)cc2)cc1S(=O)(=O)NCCCn1ccnc1 [Example 312] , tested with SFRP-1 (Homo sapiens).
Response: 0.9

Query: # get_value(readout= fold induction at 15 µM, system= SFRP-1 (Homo sapiens)) for Cc1ccc(S(=O)(=O)c2cccnc2)cc1S(=O)(=O)NCCc1ccccn1 [Example 426]
Response: 0.8

Query: Form: Entry = Cc1ccc(S(=O)(=O)c2ccc(F)cc2)cc1S(=O)(=O)NCCC(N)=O [Example 159] | System = SFRP-1 (Homo sapiens) | fold induction at 15 µM = ____
Response: 0.9

----------
Molecular target: SFRP-1 (Homo sapiens, UniProt Q8N474)
Test: Cell-based assay for in vitro measurement of SFRP-1/SARP2 antagonist activity (U2OS cells co-transfected with 16x TCF-tk-Luciferase reporter, Wnt and hSFRP-1)
Criterion: EC50 strictly under 0.5 µM. Met: class 1. Not met: class 0.

Please review the following examples before continuing.
O=C(CN1CCC(NS(=O)(=O)c2cc(S(=O)(=O)c3ccccc3)ccc2C(F)(F)F)CC1)N1CCOCC1 :: class 0
COc1cccc(OC)c1C(=O)N1CCC(NS(=O)(=O)c2cc(S(=O)(=O)c3ccccc3)ccc2C(F)(F)F)CC1 :: class 1
CCc1ccc(S(=O)(=O)c2ccccc2)cc1S(=O)(=O)NC1CCN(C(=O)OC(C)(C)C)CC1 :: class 0

Query: Determine if CC(C)(C)c1ccc(C(=O)N2CCC(NS(=O)(=O)c3cc(S(=O)(=O)c4ccccc4)ccc3C(F)(F)F)C2)cc1 (stereo not drawn) shows EC50 strictly lower than 0.5 µM.
Response: class 0

Query: Criterion: EC50 strictly below 0.5 µM. Is it met by CC(CO)NS(=O)(=O)c1cc(S(=O)(=O)c2ccccc2)ccc1C(F)(F)F (stereo not drawn) ?
Response: class 0

Query: Input `O=C(c1ccc(=O)[nH]c1)N1CCC(NS(=O)(=O)c2cc(S(=O)(=O)c3ccccc3)ccc2C(F)(F)F)CC1` ; condition: EC50 strictly below 0.5 µM. Does it hold?
Response: class 1

Query: is_below(EC50, 0.5 µM) for `CC(C)(C)OC(=O)N1CCC(CCNS(=O)(=O)c2cc(S(=O)(=O)c3ccccc3)ccc2C(F)(F)F)CC1` ?
Response: class 0

Query: Is it true that EC50 reported for `COc1cccc(S(=O)(=O)c2ccc(C(F)(F)F)c(S(=O)(=O)NC3CCN(C(=O)c4ccc(C(C)(C)C)cc4)CC3)c2)c1` is less than 0.5 µM?
Response: class 1

Query: # strict comparison: is reported EC50 < 0.5 µM? input = O=C(O)c1ccc2c(c1)CC(NS(=O)(=O)c1cc(S(=O)(=O)c3ccccc3)ccc1C(F)(F)F)C2 (stereo not drawn)
Response: class 1

----------
This listing pairs molecules with measured melting point.

Below: 2 molecules and their reported melting point.
CCCc1ccc(S(=O)(=O)c2ccccc2)cc1S(=O)(=O)NCCc1ccccn1 :: 100 to 102 °C
CC(C)c1cc(C(C)C)c(S(=O)(=O)c2ccccc2)cc1S(=O)(=O)NCCc1ccccn1 :: 189 to 191 °C

Proceeding to the next molecule to report its melting point.
Query: Suppose we examine the molecule `CCCc1ccc(S(=O)(=O)c2ccccc2)cc1S(=O)(=O)NCCc1ccncc1` ; what melting point value has been reported?
Response: 155 to 157 °C

----------
fold induction at 30 µM by entry:
Biological target: SFRP-1 (Homo sapiens)
Experiment: Cell-based assay for in vitro measurement of SFRP-1/SARP2 antagonist activity (U2OS cells co-transfected with 16x TCF-tk-Luciferase reporter, Wnt and hSFRP-1)
Conditions: U2OS, read-out: Fold Induction with SFRP-1, Conc 30 μM; with SFRP-1; fold induction over SFRP-1 control, single dose
The reply should be a number, written without any unit.

O=S(=O)(NCCc1ccccn1)c1cccc(S(=O)(=O)c2ccccc2)c1 :: 1.2
Cc1ccc(S(=O)(=O)c2ccccc2)cc1S(=O)(=O)NCCc1ccccc1 :: 1.5
Cc1ccc(S(=O)(=O)c2ccc(C)c(S(=O)(=O)NCCc3ccccc3F)c2)cc1 :: 1.1
COc1cccc(CCNS(=O)(=O)c2cc(S(=O)(=O)c3ccccc3)ccc2C)c1 :: 1.2

Query: Endpoint output: fold induction at 30 µM of `COCCCNS(=O)(=O)c1cccc(S(=O)(=O)c2ccccc2)c1` . Value?
Response: 1.2

Query: I have this compound here, `O=S(=O)(NCCc1c[nH]cn1)c1cccc(S(=O)(=O)c2ccccc2)c1` , and I need its recorded fold induction at 30 µM.
Response: 1.3

Query: Find the recorded fold induction at 30 µM belonging to `Cc1ccc(S(=O)(=O)c2ccccc2)cc1S(=O)(=O)NCCc1ccccc1F` and report it.
Response: 1

Query: I would be grateful if you could share the reported fold induction at 30 µM for `CCN(CC)CCCNS(=O)(=O)c1cccc(S(=O)(=O)c2ccccc2)c1` .
Response: 1.1

Query: If you can, please state the reported fold induction at 30 µM value of `CN(C)CCNS(=O)(=O)c1cccc(S(=O)(=O)c2ccccc2)c1` .
Response: 1.3

Query: Using the record for `CN(C)CCCNS(=O)(=O)c1cccc(S(=O)(=O)c2ccccc2)c1` , report its fold induction at 30 µM.
Response: 1.4

Query: So what does the record say about fold induction at 30 µM for `Cc1ccc(S(=O)(=O)c2ccc(F)cc2)cc1S(=O)(=O)NCCc1ccccc1Cl` ?
Response: 1.1

----------
Target: SFRP-1 (Homo sapiens, UniProt Q8N474)
Sequence (Q8N474 32-314): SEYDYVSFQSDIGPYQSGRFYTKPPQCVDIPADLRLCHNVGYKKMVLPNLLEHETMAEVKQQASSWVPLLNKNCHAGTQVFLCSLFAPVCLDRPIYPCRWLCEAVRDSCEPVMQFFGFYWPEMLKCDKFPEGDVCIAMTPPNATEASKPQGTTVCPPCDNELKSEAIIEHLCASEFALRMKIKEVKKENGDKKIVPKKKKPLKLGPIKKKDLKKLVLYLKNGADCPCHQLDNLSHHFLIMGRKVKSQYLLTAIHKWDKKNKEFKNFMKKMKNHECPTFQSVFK
Test: Cell-based assay for in vitro measurement of SFRP-1/SARP2 antagonist activity (U2OS cells co-transfected with 16x TCF-tk-Luciferase reporter, Wnt and hSFRP-1)
Conditions: U2OS, read-out: Fold Induction with SFRP-1, U2OS cells, single dose 10 μM, luciferase reporter, fold induction over SFRP-1 control
The following compounds are listed with their measured fold induction at 10 µM values.
When you answer, write just the number.

Examples with their reported fold induction at 10 µM follow.
O=C(c1ccc(C(F)(F)F)c(F)c1)N1CCC(NS(=O)(=O)c2cc(S(=O)(=O)c3ccccc3)ccc2C(F)(F)F)CC1 :: 3.3
CC(C)c1ccc(S(=O)(=O)c2ccccc2)cc1S(=O)(=O)NCc1ccncc1 :: 2.7
CCN(CC)C(=O)N(C)CCNS(=O)(=O)c1cc(S(=O)(=O)c2ccccc2)ccc1C(F)(F)F :: 3
O=C(O)[C@H]1CC[C@H](CNS(=O)(=O)c2cc(S(=O)(=O)c3ccccc3)ccc2C(F)(F)F)CC1 :: 3.1
CN(CCNS(=O)(=O)c1cc(S(=O)(=O)c2ccccc2)ccc1C(F)(F)F)C(=O)N1CCCC1 :: 3.4

Next item in the queue.
Query: Returns the measured fold induction at 10 µM for the input compound. Input: `CCC(CC)C(=O)N(C)CCNS(=O)(=O)c1cc(S(=O)(=O)c2ccccc2)ccc1C(F)(F)F`
Response: 3.2

----------
Molecular target: SFRP-1 (Homo sapiens, UniProt Q8N474)
Sequence (Q8N474 32-314): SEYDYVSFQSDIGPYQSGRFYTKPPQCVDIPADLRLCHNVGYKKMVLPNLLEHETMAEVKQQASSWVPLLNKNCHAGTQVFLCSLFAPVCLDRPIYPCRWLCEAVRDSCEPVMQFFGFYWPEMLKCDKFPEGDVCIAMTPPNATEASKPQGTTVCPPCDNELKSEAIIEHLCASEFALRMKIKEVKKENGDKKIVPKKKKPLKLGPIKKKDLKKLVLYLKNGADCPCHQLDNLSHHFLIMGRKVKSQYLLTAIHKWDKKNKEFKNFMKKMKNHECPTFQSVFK
Assay: Cell-based assay for in vitro measurement of SFRP-1/SARP2 antagonist activity (U2OS cells co-transfected with 16x TCF-tk-Luciferase reporter, Wnt and hSFRP-1);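 note: U2OS cells co-transfected with a TCF-tk luciferase reporter, a Wnt vector, hSFRP-1 or empty vector and CMV-βgal, luciferase luminescence read in cell lysates alongside βgal activity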
Conditions: U2OS, read-out: Fold Induction without SFRP-1, Conc 15 μM; without SFRP-1, single dose
READOUT_NAME: fold induction at 15 µM
Please reply with the value in numeric form only.

Use the examples below as a reference point.
Cc1cc(C)c(S(=O)(=O)c2ccccc2)cc1S(=O)(=O)NCCC1CCOCC1 :: 1.1
CCc1ccc(S(=O)(=O)c2ccccc2)cc1S(=O)(=O)N1CCN(CCN2CCCC2)CC1 :: 1.7
Cc1ccc(S(=O)(=O)c2ccccc2)cc1S(=O)(=O)NC1CCCC1 :: 1.1
CC(C)c1ccc(S(=O)(=O)c2ccc(F)cc2)cc1S(=O)(=O)NCCc1ccccn1 :: 1.2
Cc1ccc(S(=O)(=O)c2ccccc2)c(C)c1S(=O)(=O)NC1CCOCC1 :: 0.9

Query: Give the measured fold induction at 15 µM of `Cc1ccc(S(=O)(=O)c2ccccc2)cc1S(=O)(=O)NCCCc1ccccc1` .
Response: 1.1

Query: Fill blank: measured fold induction at 15 µM of the molecule `CCC(CC)NS(=O)(=O)c1cc(S(=O)(=O)c2ccccc2)ccc1C` is ____.
Response: 1.1

Query: Quick check: fold induction at 15 µM of `Cc1ccc(S(=O)(=O)c2cc(Cl)cc(Cl)c2)cc1S(=O)(=O)NCCCn1ccnc1` ?
Response: 1

Query: So what's the measured fold induction at 15 µM for this one? `Cc1ccc(S(=O)(=O)c2ccc(F)cc2)cc1S(=O)(=O)NCCC(=O)O`
Response: 1

Query: Please look up its fold induction at 15 µM: `Cc1ccc(S(=O)(=O)c2ccc(F)cc2)cc1S(=O)(=O)NCCCN1CCOCC1`
Response: 0.9

Query: Look up fold induction at 15 µM: `Cc1ccc(S(=O)(=O)c2ccc(Br)cc2)cc1S(=O)(=O)NC1CCOCC1`
Response: 0.9

Query: Which fold induction at 15 µM is listed for `CCc1ccc(S(=O)(=O)c2ccc(C)c(S(=O)(=O)NCCc3ccccn3)c2)cc1` ?
Response: 1.2

Query: Return reported fold induction at 15 µM; argument: `Cc1cc(C)c(S(=O)(=O)c2ccccc2)cc1S(=O)(=O)NCC1CCOCC1`
Response: 1

Query: Look at this molecule and give its reported fold induction at 15 µM. `Cc1ccc(S(=O)(=O)c2ccc(NC3CCOCC3)cc2)cc1S(=O)(=O)NCCCn1ccnc1`
Response: 1

Query: I am curious: what fold induction at 15 µM value has been reported for `COc1ccc(S(=O)(=O)c2ccccc2)cc1S(=O)(=O)NCCCN(C)C` ?
Response: 1

Query: Give its fold induction at 15 µM value. Item: `CCc1ccc(S(=O)(=O)c2ccccc2)cc1S(=O)(=O)NCCCOC`
Response: 0.8

Query: Value lookup for fold induction at 15 µM; key = `COc1ccc(Br)cc1CCNS(=O)(=O)c1cc(S(=O)(=O)c2ccc(F)cc2)ccc1C`
Response: 0.9

Query: Bench note: what fold induction at 15 µM did `Cc1ccc(S(=O)(=O)c2ccc(F)cc2)cc1S(=O)(=O)NCCN1CCCCC1` show?
Response: 1.1

Query: Fill in: fold induction at 15 µM of `Cc1cc(S(=O)(=O)c2ccccc2)cc(S(=O)(=O)NCCn2ccnc2)c1C` is ___
Response: 1.1

Origin of the recorded values: patent US20060276464A1
